Reference for the values: patent US8071777B2

# Tested on: P. falciparum (W2)
# measurement_description: Antimalarial activity in vitro against P. falciparum cultivated in red cells, 72 hours
# Type: cell-based
# condition_info: P. falciparum (W2) in vitro, Experiment 1, approximated
value_kind: Inhibiting concentration (IC) 80%, Experiment 1 (ng/mL)
Answers are plain numbers, in ng/mL.

CC1CCC2C(C)C(OC(=O)CCC(=O)O)OC3OC4(C)CCC1C32OO4.OC(c1cc(C(F)(F)F)nc2c(C(F)(F)F)cccc12)C1CCCCN1 (stereo not shown) [A, salt of artesunate and mefloquine] = 1.85
C[C@H]1[C@H](OC(=O)CCC(=O)O)O[C@@H]2O[C@@]3(C)CC[C@H]4[C@H](C)CC[C@@H]1[C@@]24OO3 [B, artesunate] = 0.99
OC(c1cc(C(F)(F)F)nc2c(C(F)(F)F)cccc12)C1CCCCN1 (stereo not shown) [C, mefloquine] = 12.9

Let us examine a further case.
Exam item: Please list Inhibiting concentration (IC) 80%, Experiment 1 recorded for the molecule CCN(CC)CCCC(C)Nc1ccnc2cc(Cl)ccc12 (stereo not shown) [QC, chloroquine]
Marked response: 82.3

----------
Give Inhibiting concentration (IC) 40%, Experiment 2 for every item shown.
# System: P. falciparum (W2)
# measurement_description: Antimalarial activity in vitro against P. falciparum cultivated in red cells, 72 hours
# Format: cell-based
# condition_info: P. falciparum (W2) in vitro, Experiment 2, approximated
Answers are plain numbers, in ng/mL.

C[C@H]1[C@H](OC(=O)CCC(=O)O)O[C@@H]2O[C@@]3(C)CC[C@H]4[C@H](C)CC[C@@H]1[C@@]24OO3 [B, artesunate] = 0.33
CC1CCC2C(C)C(OC(=O)CCC(=O)O)OC3OC4(C)CCC1C32OO4.OC(c1cc(C(F)(F)F)nc2c(C(F)(F)F)cccc12)C1CCCCN1 (stereo not shown) [A, salt of artesunate and mefloquine] = 0.46
OC(c1cc(C(F)(F)F)nc2c(C(F)(F)F)cccc12)C1CCCCN1 (stereo not shown) = 2.8

Exam item: Given CCN(CC)CCCC(C)Nc1ccnc2cc(Cl)ccc12 (stereo not shown) , respond with its Inhibiting concentration (IC) 40%, Experiment 2.
Marked response: 48.2

----------
# Test system: P. falciparum (W2)
# measurement_description: Antimalarial activity in vitro against P. falciparum cultivated in red cells, 72 hours
# Assay type: cell-based
# condition_info: P. falciparum (W2) in vitro, Experiment 2, approximated
value_kind: Inhibiting concentration (IC) 95%-100%, Experiment 2

CC1CCC2C(C)C(OC(=O)CCC(=O)O)OC3OC4(C)CCC1C32OO4.OC(c1cc(C(F)(F)F)nc2c(C(F)(F)F)cccc12)C1CCCCN1 (stereo not shown) [A, salt of artesunate and mefloquine] = ≧5 ng/ml
C[C@H]1[C@H](OC(=O)CCC(=O)O)O[C@@H]2O[C@@]3(C)CC[C@H]4[C@H](C)CC[C@@H]1[C@@]24OO3 [B, artesunate] = ≧5 ng/ml
OC(c1cc(C(F)(F)F)nc2c(C(F)(F)F)cccc12)C1CCCCN1 (stereo not shown) [C, mefloquine] = ≧5 ng/ml
